Molecular target: human alpha2C receptors (Homo sapiens, UniProt P18825)
Sequence (P18825 whole entry): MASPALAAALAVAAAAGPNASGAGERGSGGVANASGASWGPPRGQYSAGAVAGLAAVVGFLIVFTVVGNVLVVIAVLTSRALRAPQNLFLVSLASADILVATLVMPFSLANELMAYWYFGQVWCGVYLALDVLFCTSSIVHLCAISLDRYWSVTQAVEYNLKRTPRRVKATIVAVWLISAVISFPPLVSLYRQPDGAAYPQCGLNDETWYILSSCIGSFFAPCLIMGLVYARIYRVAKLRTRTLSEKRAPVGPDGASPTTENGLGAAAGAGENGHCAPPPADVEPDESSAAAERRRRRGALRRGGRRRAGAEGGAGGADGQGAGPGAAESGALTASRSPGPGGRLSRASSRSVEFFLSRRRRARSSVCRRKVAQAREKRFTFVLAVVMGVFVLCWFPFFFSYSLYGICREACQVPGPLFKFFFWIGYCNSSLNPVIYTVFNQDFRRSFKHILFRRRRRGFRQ
Experiment: Determination of alpha2C antagonistic activity in vitro (FLIPR calcium assay)
Conditions: Alpha 2C Adrenaline Kb, Kb calculated from IC50 with the Cheng-Prusoff equation; adrenaline as agonist; CHO cells, human alpha2C
Parameter Kb: see the listing below.
Lab book: enter the figure in nM, no units written.

structure notation	tested system	reading unit	Kb
C[C@H]1NC(=O)N([C@H]2CCCN(C[C@H]3COc4ccccc4O3)C2)C1=O	human alpha2C receptors (Homo sapiens, UniProt P18825)	nM	0.02
O=c1[nH]c2ccccc2c(=O)n1[C@H]1CCCN(C[C@H]2COc3ccccc3O2)C1	human alpha2C receptors (Homo sapiens, UniProt P18825)	nM	0.012

GET /values?readout=Kb&item= `O=C1CN(C2CC(F)(F)C2)C(=O)N1[C@H]1CCCN(C[C@H]2COc3ccccc3O2)C1`
2.66

GET /values?readout=Kb&item= `O=S1(=O)c2ccccc2CN1[C@H]1CCCN(C[C@H]2COc3ccccc3O2)C1`
65.7

GET /values?readout=Kb&item= `O=S1(=O)Nc2ccccc2N1[C@H]1CCCN(C[C@H]2COc3ccccc3O2)C1`
105

* * *

Molecular target: human alpha2A receptors (Homo sapiens, UniProt P08913)
Sequence (P08913 whole entry): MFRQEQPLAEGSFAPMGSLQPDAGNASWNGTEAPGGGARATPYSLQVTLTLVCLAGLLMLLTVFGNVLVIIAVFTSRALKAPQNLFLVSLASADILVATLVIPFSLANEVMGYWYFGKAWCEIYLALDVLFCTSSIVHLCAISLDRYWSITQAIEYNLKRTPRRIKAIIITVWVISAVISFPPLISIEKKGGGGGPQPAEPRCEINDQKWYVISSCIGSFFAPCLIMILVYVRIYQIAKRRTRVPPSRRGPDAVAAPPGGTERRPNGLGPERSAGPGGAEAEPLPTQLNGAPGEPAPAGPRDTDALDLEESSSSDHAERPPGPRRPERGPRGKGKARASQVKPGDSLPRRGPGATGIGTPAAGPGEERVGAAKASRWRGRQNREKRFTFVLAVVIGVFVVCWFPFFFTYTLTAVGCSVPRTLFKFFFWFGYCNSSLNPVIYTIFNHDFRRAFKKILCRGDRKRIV
Test: cell-based
Structures can show the parent of a compound that is named as a salt.
quantity measured: Kb

compound	result
O=C1C(=O)N([C@H]2CCCN(C[C@H]3COc4ccccc4O3)C2)C(=O)N1C1CCNCC1 [example 137, dihydrochloride]	> 449 nM
CC1CCC(=O)N1[C@H]1CCCN(C[C@H]2COc3ccccc3O2)C1 (stereo partly shown)	> 45 nM
CC1=CC(=O)N([C@H]2CCCN(C[C@H]3COc4ccccc4O3)C2)C1	> 449 nM
O=C1c2cccc(Cl)c2C(=O)N1[C@H]1CCCN(C[C@H]2COc3ccccc3O2)C1 [example 64, hydrochloride]	> 449 nM
CC(C)N1C(=O)C(=O)N([C@H]2CCCN(C[C@H]3COc4ccccc4O3)C2)C1=O	296 nM
C[C@H]1C(=O)N([C@H]2CCCN(C[C@H]3COc4ccccc4O3)C2)C(=O)[C@@H]1C	> 449 nM
C[C@@]1(c2ccccc2)CCN([C@H]2CCCN(C[C@H]3COc4ccccc4O3)C2)C1=O	> 449 nM
Fc1ccc2ncn([C@H]3CCCN(C[C@H]4COc5ccccc5O4)C3)c2c1	> 449 nM

GET /values?readout=Kb&item= O=C1C2CC2C(=O)N1[C@H]1CCCN(C[C@H]2COc3ccccc3O2)C1 (stereo partly shown)
424 nM

GET /values?readout=Kb&item= O=C1C2C3C=CC(C3)C2C(=O)N1[C@H]1CCCN(C[C@H]2COc3ccccc3O2)C1 (stereo partly shown)
308 nM

GET /values?readout=Kb&item= `O=C1CN(C2CC(F)(F)C2)C(=O)N1[C@H]1CCCN(C[C@H]2COc3ccccc3O2)C1`
> 449 nM

GET /values?readout=Kb&item= `O=C1CN(C2CCCC2)C(=O)N1[C@H]1CCCN(C[C@H]2COc3ccccc3O2)C1`
> 449 nM

GET /values?readout=Kb&item= `O=C1c2cnccc2CN1[C@H]1CCCN(C[C@H]2COc3ccccc3O2)C1`
> 449 nM

GET /values?readout=Kb&item= `O=c1[nH]c2c(F)cccc2n1[C@H]1CCCN(C[C@H]2COc3ccccc3O2)C1`
> 449 nM

GET /values?readout=Kb&item= `CN1CC(=O)N([C@H]2CCCN(C[C@H]3COc4ccccc4O3)C2)C1=O`
> 449 nM

GET /values?readout=Kb&item= `COc1ccc2c(c1)C(=O)N([C@H]1CCCN(C[C@H]3COc4ccccc4O3)C1)C2`
> 449 nM
